Species on record: Rattus norvegicus
assay overview: Time course for AII (6 ng) induced pressor response in rats to return to 50% of pretreatment level after a bolus injection of 10 microg
Assay type: functional, organism-based
Entries and their Recovery time values follow.
Express it in min; write the number only.

Some molecules with known Recovery time results, for comparison:
CNCC(=O)N[C@@H](CCCNC(=N)N)C(=O)N[C@H](C(=O)N[C@@H](Cc1ccc(O)cc1)C(=O)N[C@H](C(=O)N[C@@H](Cc1cnc[nH]1)C(=O)N1CCC[C@H]1C(=O)N[C@@H](C)C(=O)O)C(C)C)C(C)C : 11
CNCC(=O)N[C@@H](CCCN=C(N)N)C(=O)N[C@H](C(=O)N[C@@H](Cc1ccc(O)cc1)C(=O)N[C@H](C(=O)N[C@@H](Cc1c[nH]cn1)C(=O)N1CCC[C@H]1C(=O)N[C@@H](C(=O)O)C(C(F)(F)F)C(F)(F)F)C(C)C)C(C)C : 60.1
CNCC(=O)N[C@@H](CCCN=C(N)N)C(=O)N[C@H](C(=O)N[C@@H](Cc1ccc(O)cc1)C(=O)N[C@H](C(=O)N[C@@H](Cc1c[nH]cn1)C(=O)N1CCC[C@H]1C(=O)N[C@H](C(=O)O)C(C(F)(F)F)C(F)(F)F)C(C)C)C(C)C : 73.6

From here, focus on the item given below.
Determine its reported Recovery time: `CNCC(=O)N[C@@H](CCCN=C(N)N)C(=O)N[C@H](C(=O)N[C@@H](Cc1ccc(O)cc1)C(=O)N[C@H](C(=O)N[C@@H](Cc1c[nH]cn1)C(=O)N1CCC[C@H]1C(=O)N[C@H](CC(C)C)C(=O)O)C(C)C)C(C)C`
23.6
